target_entity: T1, recombinant human VEGF165 (human, UniProt P15692-4 27-191, biotinylated (Sulfo-NHS-LC-Biotin) in the competition assays)
T1 construct: also called hVEGF165; rhVEGF165
test: Biacore, periplasmic extract, VEGF165 chip, two phase decay fit
Design: unit not given here
endpoint_name: kd(fast)
Numbers only.

Check out these entries, answers already filled in.
binder | kd(fast)
VEGFBII23E05 (VHH, not shown: small tags and cut ends) VHH: EVQLVESEGGLVQPGDSLKLSCVASGRTSSSYSMGWFRQAQGKEREFVVAISSGGYIYDSVSLQGRFTISRDNTKNTVYLQTPSLKPEDTAVYYCAASRAYGSSRLRLADTYDYWGQGTQVTVSS | 0.015
VEGFBII62F02 (VHH, not shown: small tags and cut ends) VHH: EVQLVESGGGLVQPGDSLKLSCAFSGRTFSSYSMGWFRQAQGKEREFVVAIASGGYIYDAVSLEGRFTISRDNTKDTVYLQTPSLKPEDTAVYYCAASRAYGSSRLRLADTYDYWGQGTQVTVSS | 0.014
VEGFBII27G07 (VHH, not shown: small tags and cut ends) VHH: EVQLVESGGGLVQPGDSLKLSCVASGRTSSSYSMGWFRQAQGQEREFVVAISSGGYIYDSVSLQGRFTISRDNTKNTVYLQTPSLKPEDTAVYYCAASRAYGSSRLRLADTYDYWGQGTQVTVSS | 0.013
VEGFBII31C07 (VHH, not shown: small tags and cut ends) VHH: EVQLVESGGGLVQTGDSLRLSCAASGGTFSSYSMGWFRQAQGKEREFVVAISSSGGYIYDSVSLEGRFTISRDNTKNTVYLQTPSLKPEDTADYYCAASRAYGSSRLRLADTYDYWGQGTQVTVSS | 0.037

Continue with the binder presented below.
Req: Give the reported kd(fast) for this binder. VEGFBII23A03 (VHH, not shown: small tags and cut ends) VHH: EVQLVESGGGLVQPGDSLKLSCVASGRTFSSYSMGWFRQAQGKEREFVVAISSGGYIYDSVSLQGRFTISRDNTKNTVYLQTPSLKPEDTAVYYCAASRAYGSSRLRLADTYDYWGQGTQVTVSS
Resp: 0.015
